Sourced from paper PMC11409218

System: HepG2 cells
Assay text: Cytotoxicity in mammalian cells (CellTiter-Glo), HepG2
Format: cell-based
Protocol conditions: HepG2 human hepatocellular carcinoma line; 72 h drug incubation; mean of three experiments; read-out: mammalian cells CC50 (±SEM), HepG2
Assay endpoint: CC50 (µM)
Answers are plain numbers, in µM.

Quickly give me recorded CC50 for O=C1C([O][Cu]([PH](c2ccccc2)(c2ccccc2)c2ccccc2)[PH](c2ccccc2)(c2ccccc2)c2ccccc2)=C([C@H]2CC[C@H](c3ccc(Cl)cc3)CC2)C(=O)c2ccccc21 [Complex 3, [Cu(ATV)(PPh3)2]]
44.3

====

Assay text: Cytotoxicity in mammalian cells (CellTiter-Glo), HepG2
Type: cell-based
Protocol conditions: HepG2 hepatocellular carcinoma cells; HepG2 human hepatocellular carcinoma line; 72 h drug incubation; mean of three experiments; read-out: mammalian cells CC50 (±SEM), HepG2
Assay endpoint: CC50 at 72 h (µM)
Numbers only, in µM.

Recall and state the measured CC50 at 72 h for O=C1C(O)=C([C@H]2CC[C@H](c3ccc(Cl)cc3)CC2)C(=O)c2ccccc21 .
32.4

====

System: P. falciparum 3D7 (CQ-susceptible strain)
Assay text: Antiplasmodial activity, asexual blood stages, HRP2 ELISA-based assay, 3D7 strain
Assay type: cell-based, Plasmodium falciparum
Protocol conditions: Plasmodium falciparum; CQ-susceptible 3D7 strain; 72 h drug incubation; mean of five to seven experiments; read-out: P. falciparum IC50 (±SEM), 3D7
Assay endpoint: pIC50
One number for each entry, as −log10 of the molar value.

Give the measured pIC50 for O=C1C(O)=C([C@H]2CC[C@H](c3ccc(Cl)cc3)CC2)C(=O)c2ccccc21
8.62

====

Tested on: P. falciparum 3D7 (CQ-susceptible strain)
Assay text: Antiplasmodial activity, asexual blood stages, HRP2 ELISA-based assay, 3D7 strain
Type: cell-based, Plasmodium falciparum
Protocol conditions: CQ-susceptible 3D7 strain; 72 h drug incubation; mean of five to seven experiments; read-out: P. falciparum IC50 (±SEM), 3D7
Assay endpoint: pIC50
Numbers only, as −log10 of the molar value.

| Molecule | pIC50 |
| --- | --- |
| O=C1C([O][Cu]([PH](c2ccccc2)(c2ccccc2)c2ccccc2)[PH](c2ccccc2)(c2ccccc2)c2ccccc2)=C([C@H]2CC[C@H](c3ccc(Cl)cc3)CC2)C(=O)c2ccccc21 [Complex 3, [Cu(ATV)(PPh3)2]] | 7.51 |

Turning to the following molecule.
With P. falciparum 3D7 (CQ-susceptible strain) as the test system, provide measured pIC50 for this molecule: [Cl][Au].c1ccc(P(c2ccccc2)c2ccccc2)cc1 [AuClPPh3, [Au(PPh3)Cl]]
5.84

====

Assay text: Cytotoxicity in mammalian cells (CellTiter-Glo), J774
Assay type: cell-based
Protocol conditions: mouse, J774 macrophage cells; J774 murine macrophage line; 72 h drug incubation; mean of three experiments; read-out: mammalian cells CC50 (±SEM), J774
Protocol: Cell lines J774 and HepG2 were incubated with the drug for 72 h, the same time frame as employed to determine antimalarial activity. Cytotoxicity was evaluated in parallel with ATV as a representative parental drug, while doxorubicin was used as a standard cytotoxic drug. […] Doxorubicin chloridrate (Eurofarma, São Paulo, Brazil) was used as a positive control, while untreated cells were employed as negative controls. […] Three independent experiments were performed and CC50 values were calculated.
Assay endpoint: CC50 at 72 h (µM)
Give bare numbers, in µM.

| Compound | Display unit | CC50 at 72 h |
| --- | --- | --- |
| COc1cccc2c1C(=O)c1c(O)c3c(c(O)c1C2=O)C[C@@](O)(C(=O)CO)C[C@@H]3O[C@H]1C[C@H](N)[C@H](O)[C@H](C)O1 [DOX, Doxorubicin, reference compound] | µM | 0.44 |

Indicate the recorded CC50 at 72 h value for this compound: O=C1C(O)=C([C@H]2CC[C@H](c3ccc(Cl)cc3)CC2)C(=O)c2ccccc21 [ATV, atovaquone]
19.8

====

Assay text: Buffer–n-octanol distribution coefficient (shaking flask method)
Protocol conditions: pH 7
Assay endpoint: logD at 18 h
One number for each entry.

Provide only the value of recorded logD at 18 h for O=C1C(O)=C([C@H]2CC[C@H](c3ccc(Cl)cc3)CC2)C(=O)c2ccccc21
-1.15

====

Assay text: Buffer–n-octanol distribution coefficient (shaking flask method)
Protocol conditions: pH 5
Assay endpoint: logD at 18 h
Give bare numbers.

Identify the reported logD at 18 h for the following entry. O=C1C(O)=C([C@H]2CC[C@H](c3ccc(Cl)cc3)CC2)C(=O)c2ccccc21
-1.17
